Listing of recorded Km x10e3 by entry.
PROCEDURE_SUMMARY: Compound was evaluated for in vitro corneal permeability in no epithelium
Type: ADME, tissue-based, Cornea
READOUT_NAME: Km x10e3 (hr-1)

                           smiles_structure  readout_name  value_reported
0  CC(C)C[C@H](NC(=O)c1ccc(S(N)(=O)=O)cc1)C(=O)NCC(=O)O      Km x10e3             6.4
1  NS(=O)(=O)c1nnc(NC(=O)c2ccc(Cl)c(S(N)(=O)=O)c2)s1      Km x10e3               7
2  NS(=O)(=O)c1ccc(CCNC(=O)c2ccc(S(N)(=O)=O)cc2)cc1      Km x10e3             6.3
3  NS(=O)(=O)c1ccc(C(=O)N[C@@H](Cc2c[nH]cn2)C(=O)N[C@@H](Cc2ccccc2)C(=O)O)cc1      Km x10e3             5.8

---

Protein target, amino acids: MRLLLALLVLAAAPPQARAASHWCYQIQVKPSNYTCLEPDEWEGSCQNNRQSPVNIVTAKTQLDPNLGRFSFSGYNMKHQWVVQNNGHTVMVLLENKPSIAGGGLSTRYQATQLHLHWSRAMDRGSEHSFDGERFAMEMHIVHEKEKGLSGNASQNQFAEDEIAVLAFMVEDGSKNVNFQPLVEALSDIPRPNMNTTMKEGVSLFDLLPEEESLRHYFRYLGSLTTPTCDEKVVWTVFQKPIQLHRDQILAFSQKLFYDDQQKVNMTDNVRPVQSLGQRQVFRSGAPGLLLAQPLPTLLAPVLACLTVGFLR
READOUT_NAME: Ki (µM)

                                    compound  value_units  value_reported
 0  CSCC[C@H](NC(=O)c1ccc(S(N)(=O)=O)cc1)C(=O)O           µM            0.15
 1  NS(=O)(=O)c1ccc(CCNC(=O)c2ccc(Cl)c(S(N)(=O)=O)c2)cc1           µM           0.063
 2  NS(=O)(=O)c1cc(C(=O)N[C@@H](CO)C(=O)O)ccc1Cl           µM           0.395
 3  NS(=O)(=O)c1cc(C(=O)N[C@@H](CC(=O)O)C(=O)O)ccc1Cl           µM           0.355
 4  C[C@@H](O)[C@H](NC(=O)c1ccc(Cl)c(S(N)(=O)=O)c1)C(=O)O           µM           0.735
 5  NS(=O)(=O)c1nnc(NC(=O)c2ccc(Cl)c(S(N)(=O)=O)c2)s1           µM           0.022
 6  CC(C)C[C@H](NC(=O)c1ccc(S(N)(=O)=O)cc1)C(=O)NCC(=O)O           µM           0.016
 7  NC(=O)CC[C@H](NC(=O)c1ccc(S(N)(=O)=O)cc1)C(=O)O           µM            0.16
 8  NS(=O)(=O)c1cc(C(=O)NC(Cc2ccc(O)c(O)c2)C(=O)O)ccc1Cl (stereo unspecified)           µM            0.33
 9  NS(=O)(=O)c1ccc(CNC(=O)c2ccc(S(N)(=O)=O)cc2)cc1           µM           0.016
10  NS(=O)(=O)c1cc(C(=O)N[C@@H](CS)C(=O)O)ccc1Cl           µM            0.72
11  NS(=O)(=O)c1ccc(CCNC(=O)c2ccc(S(N)(=O)=O)cc2)cc1           µM           0.013
12  CC(C)C[C@H](NC(=O)c1ccc(Cl)c(S(N)(=O)=O)c1)C(=O)NCC(=O)O           µM            0.08
13  C[C@H](NC(=O)c1ccc(Cl)c(S(N)(=O)=O)c1)C(=O)N[C@@H](Cc1ccccc1)C(=O)O           µM           0.072
14  NS(=O)(=O)c1cc(C(=O)N[C@@H](Cc2c[nH]cn2)C(=O)O)ccc1Cl           µM            0.35
15  NS(=O)(=O)c1ccc(C(=O)N[C@@H](CS)C(=O)O)cc1           µM            0.23
16  NS(=O)(=O)c1cc(C(=O)N[C@@H](Cc2ccccc2)C(=O)O)ccc1Cl           µM            0.34
17  NC(=O)C[C@H](NC(=O)c1ccc(Cl)c(S(N)(=O)=O)c1)C(=O)O           µM            0.33
18     NS(=O)(=O)c1cc(C(=O)NCCCC(=O)O)ccc1Cl           µM            0.54
19  CC(C)C[C@H](NC(=O)c1ccc(Cl)c(S(N)(=O)=O)c1)C(=O)O           µM            0.33
20  NS(=O)(=O)c1ccc(C(=O)NCC(=O)NCC(=O)O)cc1           µM            0.05
